ASSAY_TEXT: Half life in Balb/c mouse at 5 mg/kg, iv or 10 mg/kg, po administered via gavage measured upto 24 hrs by LC-MS/MS
Assay type: ADME, organism-based
CONDITION_SET: in vivo

- COMPOUND: "NC(C(=O)N[C@@](Cc1ccccc1)(c1cc(F)cc(OC(F)(F)C(F)F)c1)c1ccc(F)c(OC2CC2)c1)C(O)(C(F)(F)F)C(F)(F)F (stereo partly specified)"
  UNIT_ABBREVIATION: "h"
  half-life: 5

---

ASSAY_SYSTEM: Cholesteryl ester transfer protein (Homo sapiens, UniProt P11597)
Sequence (P11597 whole entry): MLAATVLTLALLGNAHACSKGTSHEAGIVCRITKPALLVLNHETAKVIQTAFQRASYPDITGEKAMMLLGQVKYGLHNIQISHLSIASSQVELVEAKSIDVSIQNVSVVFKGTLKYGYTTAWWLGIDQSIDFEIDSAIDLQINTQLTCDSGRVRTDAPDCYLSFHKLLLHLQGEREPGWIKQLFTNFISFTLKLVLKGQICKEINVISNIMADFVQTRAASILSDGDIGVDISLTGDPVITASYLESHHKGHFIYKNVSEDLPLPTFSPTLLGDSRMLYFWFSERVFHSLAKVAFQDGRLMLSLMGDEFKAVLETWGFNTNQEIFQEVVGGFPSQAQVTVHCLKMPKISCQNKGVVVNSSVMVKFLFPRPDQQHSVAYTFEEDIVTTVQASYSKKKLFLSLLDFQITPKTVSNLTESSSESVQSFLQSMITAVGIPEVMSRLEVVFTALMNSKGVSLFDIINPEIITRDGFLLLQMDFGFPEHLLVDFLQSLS
ASSAY_TEXT: Inhibition of human recombinant CETP assessed as reduction in [3H]CE/HDL transfer incubated for 4 hrs by scintillation proximity assay
pIC50: −log10 of the molar value.

- MOLECULE: "CC(C)(C)Oc1cc([C@@](Cc2ccccc2)(NC(=O)C(N)C(O)(C(F)(F)F)C(F)(F)F)c2cc(F)cc(OC(F)(F)C(F)F)c2)ccc1F (stereo partly drawn)"
  pIC50: 8.30
- MOLECULE: "NC(C(=O)N[C@@](Cc1ccccc1)(c1cc(F)cc(OC(F)(F)C(F)F)c1)c1ccc(Cl)cn1)C(O)(C(F)(F)F)C(F)(F)F (stereo in doubt; 9a)"
  pIC50: 7.28
- MOLECULE: "CC(C)Oc1cc([C@@](Cc2ccccc2)(NC(=O)C(N)C(O)C(F)(F)F)c2cc(F)cc(OC(F)(F)C(F)F)c2)ccc1F (stereo partly drawn)"
  pIC50: 8.22

---

Entries and their remaining at 10 min, 50 µM
ASSAY_TEXT: Stability in mouse liver microsomes assessed as parent compound remaining at 50 uM preincubated for 5 to 7 mins followed by NADPH addition and measured 10 mins post-dose by LC-MS/MS
Type: ADME, Microsome
CONDITION_SET: read-out: Stability

- MOLECULE: "CC(C)(C)Oc1cc([C@@](Cc2ccccc2)(NC(=O)C(N)C(O)(C(F)(F)F)C(F)(F)F)c2cc(F)cc(OC(F)(F)C(F)F)c2)ccc1F (some centres not stated)"
  remaining at 10 min, 50 µM: "100%"
- MOLECULE: "CC(C)Oc1cc([C@@](Cc2ccccc2)(NC(=O)C(N)C(O)(C(F)(F)F)C(F)(F)F)c2cc(F)cc(OC(F)(F)C(F)F)c2)ccc1F (some centres not stated)"
  remaining at 10 min, 50 µM: "90%"
- MOLECULE: "CC(C)NC(C(=O)N[C@](Cc1ccccc1)(c1ccc(F)cc1)c1cc(F)cc(C(F)(F)F)c1)C(O)(C(F)(F)F)C(F)(F)F (some centres not stated)"
  remaining at 10 min, 50 µM: "54%"
- MOLECULE: "CC(C)Oc1cc([C@@](Cc2ccccc2)(NC(=O)C(N)C(O)C(F)(F)F)c2cc(F)cc(OC(F)(F)C(F)F)c2)ccc1F (some centres not stated)"
  remaining at 10 min, 50 µM: "16%"
- MOLECULE: "NC(C(=O)N[C@](Cc1ccccc1)(c1ccc(F)cc1)c1cc(F)cc(C(F)(F)F)c1)C(O)(C(F)(F)F)C(F)(F)F (some centres not stated)"
  remaining at 10 min, 50 µM: "72%"
- MOLECULE: "CC(C)Oc1cc([C@@](Cc2ccccc2)(NC(=O)C(O)C(O)(C(F)(F)F)C(F)(F)F)c2cc(F)cc(OC(F)(F)C(F)F)c2)ccc1F (some centres not stated)"
  remaining at 10 min, 50 µM: "100%"
- MOLECULE: "NC(C(=O)N[C@@](Cc1ccccc1)(c1cc(F)cc(OC(F)(F)C(F)F)c1)c1ccc(Cl)cn1)C(O)(C(F)(F)F)C(F)(F)F (stereo in doubt; 9a)"
  remaining at 10 min, 50 µM: "100%"

---

Listing of recorded pIC50 by entry.
ASSAY_SYSTEM: Cholesteryl ester transfer protein (Homo sapiens, UniProt P11597)
ASSAY_TEXT: Inhibition of CETP in human whole plasma assessed as reduction in [3H]-CE/HDL transfer incubated for 2.5 hrs by topcount scintillation counting assay
Type: cell-free
pIC50: −log10 of the molar value.

- COMPOUND: "CC(C)Oc1cc([C@@](Cc2ccccc2)(NCC(N)C(O)(C(F)(F)F)C(F)(F)F)c2cc(F)cc(OC(F)(F)C(F)F)c2)ccc1F (some centres undefined)"
  pIC50: 6.70
- COMPOUND: "NC(C(=O)N[C@@](Cc1ccccc1)(c1cc(F)cc(OC(F)(F)C(F)F)c1)c1ccc(F)c(OC2CC2)c1)C(O)(C(F)(F)F)C(F)(F)F (some centres undefined)"
  pIC50: 7.21
- COMPOUND: "O=C(N[C@@](Cc1ccccc1)(c1cc(F)cc(C(F)(F)F)c1)c1ccc(Cl)cn1)C(O)C(O)(C(F)(F)F)C(F)(F)F (some centres undefined)"
  pIC50: 5.85
- COMPOUND: "NC(C(=O)N[C@@](Cc1ccccc1)(c1cc(F)cc(OC(F)(F)C(F)F)c1)c1ccc(Cl)cn1)C(O)(C(F)(F)F)C(F)(F)F (stereo in doubt; 9b)"
  pIC50: 6.03

---

ASSAY_TEXT: Volume of distribution at steady state in Balb/c mouse at 5 mg/kg, iv or 10 mg/kg, po administered via gavage measured upto 24 hrs by LC-MS/MS
Type: ADME, organism-based
CONDITION_SET: in vivo, read-out: Vdss

- MOLECULE: "NC(C(=O)N[C@@](Cc1ccccc1)(c1cc(F)cc(OC(F)(F)C(F)F)c1)c1ccc(F)c(OC2CC2)c1)C(O)(C(F)(F)F)C(F)(F)F (stereo partly specified)"
  Vd (L/kg): 0.4

---

ASSAY_TEXT: Clearance in Balb/c mouse at 5 mg/kg, iv or 10 mg/kg, po administered via gavage measured upto 24 hrs by LC-MS/MS
Format: ADME, organism-based
CONDITION_SET: in vivo
READOUT_TYPE: clearance (mL/min/kg)

- MOLECULE: "NC(C(=O)N[C@@](Cc1ccccc1)(c1cc(F)cc(OC(F)(F)C(F)F)c1)c1ccc(F)c(OC2CC2)c1)C(O)(C(F)(F)F)C(F)(F)F (stereo partly specified)"
  QUANTITATIVE_READOUT: 1.9
